- Target desc: RSV F protein of subtype A strain A2, on virus (respiratory syncytial virus subtype A …, UniProt P03420 26-574)
- Assay overview: cell-based or functional assay

Binder: ADI-15616 (antibody, V domains shown, IgG) VH: QVQLVQSGGGLVKPGGSLRLSCAASGFTFSDHYMTWIRQAPGKGLEWVSYISSTSSFTNYADSVKGRFTISRDNAKKSLYLQMNSLRAEDTAVYYCARDRNWGYAYGSDYWGQGTLVTVSS VL: DIRLTQSPDTLSLSPGERATLSCRASQSVSSTYLAWYQQKPGQAPRLLIYGAFGRATGIPDRFSGSGSGTDFTLTISRLEPEDFAVYYCQLYGNSRTFGQGTKLEIK
Neut IC50 (ug/ml) subtype A (µg/mL): 4.52

Binder: ADI-15612 (antibody, V domains shown, IgG) VH: EVQLLESGGDLVQPGGSLRLSCAASGFPFSSHSMNWVRQAPGKGLEWISYISGGSDTIQYADSVKGRFTISRDNVKNSLYLQMNSLRAEDTAVYYCARDQYIWNYVEPLDYWGQGTLVTVSS VL: DIQMTQSPSSLSASVGDRVTITCRASQDISYYLGWYQQKAGKAPKLLIYAVSNLQTGVPSRFSGSGSGTDFTLTISSLQPEDFATYYCLQDHTCPWTFGQGTKVEIK
Neut IC50 (ug/ml) subtype A (µg/mL): 0.053

Source of measurements: patent US20220144922A1
